TARGET_OR_TEST_SYSTEM: S. pyogenes SKKanGAS, kanamycin survival, BacTiterGlo, 6 h
ASSAY_METHOD_TEXT: S. pyogenes SKKanGAS kanamycin growth inhibitors – SKKanGAS strain, luminescence, dose confirmation, streptokinase promoter inhibitor project, dose response (AID 1902);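 further: lower survival reflects blocked streptokinase promoter driving kanamycin resistance gene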
READOUT: pEC50
Keep it numeric: pEC50 is minus log10 of the concentration in mol/L.

COc1ccccc1-c1nnc(Nc2nc3c(OC)cccc3s2)o1 ... 6.10
CC1CCc2c(sc3nc(C(C)(C)C)nc(N4CCN(C(=O)CCl)CC4)c23)C1 (stereo not given) ... 5.44
COc1ccc(C2CC(c3cccs3)=NN2C(=O)CSc2nc3c(cnn3-c3ccccc3)c(=O)[nH]2)cc1 (stereo not given) ... 5.68
COc1ccc(C(Nc2cc(C)ccn2)c2ccc3ccc(C)nc3c2O)cc1 (stereo not given) ... 4.90

May I ask what pEC50 has been recorded for `CCSc1n[nH]c2nc3c(c(=O)n12)C1(CCCC1)Cc1ccccc1-3` ?
5.43

###

TARGET_OR_TEST_SYSTEM: S. pyogenes SKKanGAS, kanamycin survival, BacTiterGlo, 6 h
ASSAY_METHOD_TEXT: S. pyogenes SKKanGAS kanamycin growth inhibitors – SKKanGAS strain, luminescence, dose confirmation, streptokinase promoter inhibitor project, dose response (AID 1902);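 active = EC50 no more than a set limit of log units above the highest dose; inactive = the rest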
Give your call using only these classes: 1.0 = active, 0.0 = inactive

Here are 10 compounds together with their reported answers.
Cn1nnc(-c2ccc(OCc3ccccc3F)cc2)n1 ... 1.0
Cc1ccc2c(=O)[nH]c(Nc3nc(C)cc(-c4ccccc4)n3)nc2c1 ... 1.0
COc1cccc(-c2nc(NC3CCCC3)c3ccccc3n2)c1O ... 1.0
CC(=O)OCC1=C(C(=O)O)N2C(=O)C(NC(=O)c3ccc(COc4cccc(Cl)c4Cl)o3)C2SC1 (stereo unspecified) ... 1.0
O=C(Nc1nnc(-c2ccncc2)o1)c1ccc2ccccc2c1 ... 1.0
Cc1ccc(C(=O)CC(=O)c2ccccc2C)c(O)c1 ... 1.0
O=C(N/N=C\C=C\c1ccc([N+](=O)[O-])o1)c1cccs1 ... 1.0
CC(C)(C)[C@H]1CCC(=O)N([C@H](CSc2ccccc2)Cc2ccccc2)CC1 ... 1.0
CC(C)CCn1c(=O)c(C(=O)N/N=C/c2cccc(F)c2)c(O)c2ccccc21 ... 1.0
N=c1ccn2c(n1)O[C@H]1[C@H](O)[C@@H](CO)O[C@H]12 ... 1.0

API: the following record is the query input.
For `CCCc1nc2ccccc2c(=O)n1NC(=O)c1c(O)c2cccc3c2n(c1=O)CCC3` , what call appears in the results of this test?
1.0

###

Each entry below carries its recorded EC50.
TARGET_OR_TEST_SYSTEM: S. pyogenes SKKanGAS, kanamycin survival, BacTiterGlo, 6 h
ASSAY_METHOD_TEXT: S. pyogenes SKKanGAS kanamycin growth inhibitors – SKKanGAS strain, luminescence, dose confirmation, streptokinase promoter inhibitor project, dose response (AID 1902)
Active and inactive are the calls of the source.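 The calls were made as follows: active = EC50 no more than a set limit of log units above the highest dose; inactive = the rest.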

CC(C)(C)C(=O)N1N=C(c2ccc(NS(C)(=O)=O)cc2)CC1c1cccs1 (stereo unspecified) ... 7.49 µM
CCOC(=O)c1cnc(-n2nc(C)cc2C)nc1NC(C)c1ccccc1 (stereo unspecified) ... 2.74 µM
O=C(Nc1ccc(Cl)c(Cl)c1)N1CC=C(c2ccccc2)CC1 ... 8.08 µM
Cc1ccc(C(=O)N2CCOCC2)cc1Cl ... > 15 µM (inactive)
Brc1ccc2[nH]c3c(N4CCc5ccccc5C4)ncnc3c2c1 ... 6.22 µM

May I ask what EC50 has been recorded for `NNc1nc(-c2ccccc2)c2cc(Br)ccc2n1` ?
9.12 µM

May I ask what EC50 has been recorded for `O=C(Nc1nnc(C2CC2)s1)c1cc(-c2ccccc2)nn1-c1ccccc1` ?
6.47 µM

May I ask what EC50 has been recorded for `COc1ccc(C(=O)NNC(=S)NC(=O)c2ccccc2)cc1` ?
0.995 µM

May I ask what EC50 has been recorded for `CCCCCCCCOC(=O)/C=C/c1c(C)[nH]c(=O)[nH]c1=O` ?
0.788 µM

May I ask what EC50 has been recorded for `COc1ccc2oc(=O)c(-c3csc(Nc4ccc(O)cc4)n3)cc2c1` ?
2.16 µM

May I ask what EC50 has been recorded for `Cc1ccc(/C=N/NC(=O)Cc2ccc(Cl)cc2)c(O)c1` ?
0.866 µM

###

TARGET_OR_TEST_SYSTEM: S. pyogenes SKKanGAS, kanamycin survival, BacTiterGlo, 6 h
ASSAY_METHOD_TEXT: S. pyogenes SKKanGAS kanamycin growth inhibitors – SKKanGAS strain, luminescence, dose confirmation, streptokinase promoter inhibitor project, dose response (AID 1902);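 further: lower survival reflects blocked streptokinase promoter driving kanamycin resistance gene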
Active and inactive are the calls of the source.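 How the source made its calls: active means EC50 no more than a set limit of log units above the highest dose; inactive means the rest.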
Give your call using only these classes: Yes = active, No = inactive

Here are 4 compounds together with their reported answers.
CCC(C(=O)N1CCC(N2CCCCC2)CC1)n1nc(C)c2sc3ccccc3c2c1=O (stereo not given) ... No
O=C1C2C(c3ccccc3)=NN(c3ccccc3)C2C(=O)N1c1ccccc1 (stereo not given) ... Yes
CC(C)=CCc1cc([C@@H]2COc3c(ccc4c3C=CC(C)(C)O4)C2)c(O)cc1O ... Yes
CC1CCN(C(=O)N2c3ccccc3Sc3ccccc32)CC1 ... Yes

For `Cc1nn(-c2ccccc2)c(C)c1/C=N/Nc1nc2ccccc2[nH]1` , what call appears in the results of this test?
Yes

###

TARGET_OR_TEST_SYSTEM: S. pyogenes SKKanGAS, kanamycin survival, BacTiterGlo, 6 h
ASSAY_METHOD_TEXT: S. pyogenes SKKanGAS kanamycin growth inhibitors – SKKanGAS strain, luminescence, dose confirmation, streptokinase promoter inhibitor project, dose response (AID 1902);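 further: lower survival reflects blocked streptokinase promoter driving kanamycin resistance gene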
Each entry below carries its recorded EC50.

// worked examples, EC50 included
CC(=O)C1=C(c2ccc(Br)cc2)C(=O)c2ccccc2C1=O ... 1.45 µM
Cc1cccc(-n2nc(C(=O)c3ccco3)cc(-c3nc4ccccc4[nH]3)c2=N)c1 ... 3.36 µM

May I ask what EC50 has been recorded for `COc1cc(C(=O)NS(=O)(=O)c2ccccc2C)ccc1Cc1cn(C)c2ccc(NC(=O)OC3CCCC3)cc12` ?
2.05 µM

May I ask what EC50 has been recorded for CC(/C=C/c1ccc(N(C)C)cc1)=N\N=C1\NC(=O)CC(C(=O)Nc2ccccc2)S1 (centres undefined) ?
3.16 µM

May I ask what EC50 has been recorded for `O=C(CCCCCNC(=O)c1ccccc1)N=Nc1c(O)[nH]c2c(Br)cc(Br)cc12` ?
5.43 µM

May I ask what EC50 has been recorded for `CN(C)CCCn1c(SCC(=O)Nc2nc(-c3cccc(Br)c3)cs2)nc2ccccc2c1=O` ?
4.73 µM

May I ask what EC50 has been recorded for `O=C(NNC(=O)c1ccccc1OCc1ccccc1Cl)c1csc(N2CCOCC2)n1` ?
5.04 µM

May I ask what EC50 has been recorded for `CCCCCCCCOC(=O)c1c(CSC(=N)N)n(C)c2cc(Br)c(OC(C)=O)cc12` ?
2.83 µM

May I ask what EC50 has been recorded for `Cc1cccc(Cn2nc(C(C)(C)C)cc2C(=O)Nc2ccc(F)cc2)c1` ?
3.95 µM

###

TARGET_OR_TEST_SYSTEM: S. pyogenes SKKanGAS, kanamycin survival, BacTiterGlo, 6 h
ASSAY_METHOD_TEXT: S. pyogenes SKKanGAS kanamycin growth inhibitors – SKKanGAS strain, luminescence, dose confirmation, streptokinase promoter inhibitor project, dose response (AID 1902);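 further: lower survival reflects blocked streptokinase promoter driving kanamycin resistance gene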
The source made the active and inactive calls.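 Rule for the calls: active = EC50 no more than a set limit of log units above the highest dose; inactive = the rest.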
Give your call using only these classes: 1 = active, -1 = inactive

Here are 3 compounds together with their reported answers.
COc1ccc(Cn2c(SCc3ccc(C)cc3)nc3cc(OC)c(OC)cc3c2=N)cc1Cl ... 1
Cc1ccnn2c(-c3ccccc3)c3c(=O)n(C)c(=O)n(C)c3c12 ... -1
O=C(Nc1nnc(-c2ccc(Br)cc2)o1)c1cccc(N2C(=O)CCC2=O)c1 ... 1

For `C=CCn1c(SCC(=O)/C(C#N)=C(\C)N)nc2sc(C)c(C)c2c1=O` , what call appears in the results of this test?
1

For O=C(CSc1nnc(NC(=O)c2cccc(Cl)c2)s1)NCC1CCCO1 (stereo not given) , what call appears in the results of this test?
-1

For C[C@H](CCC(=O)NCC(=O)O)[C@H]1CC[C@H]2C3[C@H](O)C[C@@H]4C[C@H](O)CC[C@]4(C)[C@H]3C[C@H](O)[C@]12C (stereo not given in full) , what call appears in the results of this test?
-1

For `CCn1cc(CN2CCC(n3nccc3NC(=O)Cc3ccccc3)CC2)cn1` , what call appears in the results of this test?
-1

For `CCN1CCN(C(=O)N[C@@H](C(=O)N[C@@H]2C(=O)N3[C@@H]2SC(C)(C)[C@@H]3C(=O)O)c2ccccc2)C(=O)C1=O` , what call appears in the results of this test?
1

For `CCc1ccc(/C=C/c2c([N+](=O)[O-])c(=O)n(C)c(=O)n2C)cc1` , what call appears in the results of this test?
1

For `O=C(Nc1ccc(-c2csc(Nc3ccccc3)n2)cc1)c1cccc(C(F)(F)F)c1` , what call appears in the results of this test?
-1

For `O=C(c1ccc(Cl)cc1)c1cnc(Nc2ccccc2Cl)s1` , what call appears in the results of this test?
1

For CC(=O)OCC1=C(C(=O)O)N2C(=O)C(NC(=O)c3ccc(F)cc3)C2SC1 (stereo not given) , what call appears in the results of this test?
1

For `CC(/C=C/C=C/c1ccccc1)=N/NC(=O)c1ccc2c(c1)OCCO2` , what call appears in the results of this test?
-1

For `N#C/C(=C(/O)CN1CCN(c2ccccc2F)CC1)c1nc(-c2ccccc2)cs1` , what call appears in the results of this test?
1

For `CCCCNc1c(-c2ccc(-c3ccc(C(C)=O)cc3)c(OC)c2)nc2cnccn12` , what call appears in the results of this test?
1

For `Oc1ccc(-c2nc3c4c(ncn3n2)-c2ccccc2CC42CCCC2)cc1` , what call appears in the results of this test?
1

For `COc1cccc(/C=C/C(=C2/C(=O)N(c3ccccc3)N=C2C)c2ccc(Br)cc2)c1OC` , what call appears in the results of this test?
-1

For CCc1ccccc1NC(=O)NC(C)c1ccc2c(c1)OCO2 (stereo not given) , what call appears in the results of this test?
-1

For `CC(C)(C)c1cc(-c2csc(Nc3ccccc3)[n+]2Cc2ccc(C(=O)O)cc2)cc(C(C)(C)C)c1O` , what call appears in the results of this test?
1

For `COc1ccccc1C(=O)NNC(=O)C(=O)Nc1ccc(C)c(Cl)c1` , what call appears in the results of this test?
1
